# key: entry, value: abundance fitness
B1: Chromodomain-helicase-DNA-binding protein 5, residues 338 to 390; numbered along this chain, Q8TDI0 (parent)
chain: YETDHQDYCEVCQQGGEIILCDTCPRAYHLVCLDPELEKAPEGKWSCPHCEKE

Variants of: B1
Assay: abundance fitness (aPCA) (normalised: wild type 0, dead -1); higher = more abundant; growth selection in yeast, the domain comes from the species named
Details: Homo sapiens
MEASUREMENT TYPE: abundance fitness

>  <MUTATION KEY>
L33M

>  <VALUE MEASURED>
0.185

$$$$
>  <MUTATION KEY>
G43A

>  <VALUE MEASURED>
-0.192

$$$$
>  <MUTATION KEY>
L37P

>  <VALUE MEASURED>
-0.085

$$$$
>  <MUTATION KEY>
G43M

>  <VALUE MEASURED>
-0.088

$$$$
>  <MUTATION KEY>
G16T

>  <VALUE MEASURED>
0.265

$$$$
>  <MUTATION KEY>
E38V

>  <VALUE MEASURED>
-0.157

$$$$
>  <MUTATION KEY>
K39L

>  <VALUE MEASURED>
-0.002

$$$$
>  <MUTATION KEY>
C21V

>  <VALUE MEASURED>
-0.519

$$$$
>  <MUTATION KEY>
E36K

>  <VALUE MEASURED>
0.093

$$$$
>  <MUTATION KEY>
S46E

>  <VALUE MEASURED>
-0.023

$$$$
>  <MUTATION KEY>
C32I

>  <VALUE MEASURED>
-0.786

$$$$
